Data credit: patent US20240059671A1

molecular target: TYK2 (Homo sapiens); assay: TYK2 protein degradation in MOLT-4 cells by immunoblotting; format: cell-based; design: endogenous in cells; host or cells: MOLT-4; details: MOLT-4 cells, 0.5 μM, 24 hours
Measurement Label: TYK2 Degradation (0.5 μM)

Fill in the blank: the reported TYK2 Degradation (0.5 μM) of CNC(=O)c1nnc(NC(=O)CNC(=O)CCCCC(=O)N[C@H](C(=O)N2C[C@H](O)C[C@H]2C(=O)NCc2ccc(-c3scnc3C)cc2)C(C)(C)C)cc1Nc1cccc(-c2ncn(C)n2)c1OC [CPD-036] is ____.
≤20%

Fill in the blank: the reported TYK2 Degradation (0.5 μM) of CNC(=O)c1nnc(NC(=O)C2CC2)cc1Nc1cccc(-c2ncn(CCNC(=O)CCNc3cccc4c3C(=O)N(C3CCC(=O)NC3=O)C4=O)n2)c1OC (stereo not shown) [CPD-002] is ____.
≤20%

Fill in the blank: the reported TYK2 Degradation (0.5 μM) of CNC(=O)c1nnc(NC(=O)CNC(=O)CCOCCOCCOCCOCCOCCNc2cccc3c2C(=O)N(C2CCC(=O)NC2=O)C3=O)cc1Nc1cccc(-c2ncn(C)n2)c1OC (stereo not shown) [CPD-053] is ____.
≤20%

Fill in the blank: the reported TYK2 Degradation (0.5 μM) of CNC(=O)c1nnc(NC(=O)CNC(=O)CCNc2cccc3c2C(=O)N(C2CCC(=O)NC2=O)C3=O)cc1Nc1cccc(-c2ncn(C)n2)c1OC (stereo not shown) [CPD-043] is ____.
≤20%

Fill in the blank: the reported TYK2 Degradation (0.5 μM) of CNC(=O)c1nnc(NC(=O)CNC(=O)CCOCCOCCOCCOCCOCCC(=O)N[C@H](C(=O)N2C[C@H](O)C[C@H]2C(=O)NCc2ccc(-c3scnc3C)cc2)C(C)(C)C)cc1Nc1cccc(-c2ncn(C)n2)c1OC [CPD-033] is ____.
≤20%

Fill in the blank: the reported TYK2 Degradation (0.5 μM) of CNC(=O)c1nnc(NC(=O)CNC(=O)CCOCCOCCOCCOCCC(=O)N[C@H](C(=O)N2C[C@H](O)C[C@H]2C(=O)NCc2ccc(-c3scnc3C)cc2)C(C)(C)C)cc1Nc1cccc(-c2ncn(C)n2)c1OC [CPD-031] is ____.
≤20%

Fill in the blank: the reported TYK2 Degradation (0.5 μM) of CNC(=O)c1nnc(NC(=O)C2CC2)cc1Nc1cccc(-c2ncn(CCNC(=O)CCC(=O)N[C@H](C(=O)N3C[C@H](O)C[C@H]3C(=O)NCc3ccc(-c4scnc4C)cc3)C(C)(C)C)n2)c1OC [CPD-075] is ____.
≤20%

----------
Assignment: determine reported TYK2 Degradation (0.5 μM) for the given compounds.
target: TYK2 (Homo sapiens, UniProt P29597); test: TYK2 protein degradation in MOLT-4 cells by immunoblotting; format: cell-based; parameters: endogenous in cells; host or cells: MOLT-4; conditions: MOLT-4 cells, 0.5 μM, 24 hours
Sequence (P29597 whole entry): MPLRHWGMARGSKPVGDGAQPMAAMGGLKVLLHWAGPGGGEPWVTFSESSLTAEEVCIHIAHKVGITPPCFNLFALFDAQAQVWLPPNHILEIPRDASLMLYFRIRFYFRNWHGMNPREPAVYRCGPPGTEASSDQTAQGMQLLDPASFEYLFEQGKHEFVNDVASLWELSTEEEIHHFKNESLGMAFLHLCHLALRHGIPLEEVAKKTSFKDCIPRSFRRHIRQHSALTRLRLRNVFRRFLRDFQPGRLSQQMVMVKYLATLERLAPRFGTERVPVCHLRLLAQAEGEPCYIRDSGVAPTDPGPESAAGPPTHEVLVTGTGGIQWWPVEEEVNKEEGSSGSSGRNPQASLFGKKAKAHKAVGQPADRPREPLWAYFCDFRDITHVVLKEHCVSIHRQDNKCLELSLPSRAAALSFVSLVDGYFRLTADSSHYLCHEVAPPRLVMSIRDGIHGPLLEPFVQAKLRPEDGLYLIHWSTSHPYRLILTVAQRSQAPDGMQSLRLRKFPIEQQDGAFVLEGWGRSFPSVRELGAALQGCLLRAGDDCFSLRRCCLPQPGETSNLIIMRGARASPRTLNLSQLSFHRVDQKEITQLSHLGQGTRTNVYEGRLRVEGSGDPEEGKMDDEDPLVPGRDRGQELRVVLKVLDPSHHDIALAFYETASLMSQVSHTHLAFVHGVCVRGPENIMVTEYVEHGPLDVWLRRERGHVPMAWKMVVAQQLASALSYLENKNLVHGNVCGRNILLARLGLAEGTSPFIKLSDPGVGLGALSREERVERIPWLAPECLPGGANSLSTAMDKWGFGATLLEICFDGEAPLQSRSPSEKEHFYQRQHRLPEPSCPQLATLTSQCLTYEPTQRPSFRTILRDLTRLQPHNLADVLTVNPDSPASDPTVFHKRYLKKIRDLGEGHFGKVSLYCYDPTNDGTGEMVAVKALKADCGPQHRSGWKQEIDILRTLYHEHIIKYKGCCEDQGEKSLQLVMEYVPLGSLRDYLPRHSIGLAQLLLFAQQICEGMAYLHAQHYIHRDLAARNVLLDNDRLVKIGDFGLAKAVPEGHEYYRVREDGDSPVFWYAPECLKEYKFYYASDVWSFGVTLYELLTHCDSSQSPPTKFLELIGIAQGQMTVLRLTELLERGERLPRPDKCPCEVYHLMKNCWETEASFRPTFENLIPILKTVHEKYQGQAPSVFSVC

So what TYK2 Degradation (0.5 μM) did CNC(=O)c1nnc(NC(=O)C2CC2)cc1Nc1cccc(-c2ncn(CCNC(=O)CCCCCNc3cccc4c3C(=O)N(C3CCC(=O)NC3=O)C4=O)n2)c1OC (stereo not drawn) [CPD-005] get with TYK2 (Homo sapiens, UniProt P29597)?
≤20%

So what TYK2 Degradation (0.5 μM) did CNC(=O)c1nnc(NC(=O)CNC(=O)CCOCCOCCOCCOCCNc2cccc3c2C(=O)N(C2CCC(=O)NC2=O)C3=O)cc1Nc1cccc(-c2ncn(C)n2)c1OC (stereo not drawn) [CPD-052] get with TYK2 (Homo sapiens, UniProt P29597)?
≤20%

So what TYK2 Degradation (0.5 μM) did CNC(=O)c1nnc(NC(=O)C2CC2)cc1Nc1cccc(-c2ncn(CCNC(=O)CCOCCOCCOCCOCCOCCC(=O)N[C@H](C(=O)N3C[C@H](O)C[C@H]3C(=O)NCc3ccc(-c4scnc4C)cc3)C(C)(C)C)n2)c1OC [CPD-074] get with TYK2 (Homo sapiens, UniProt P29597)?
≤20%

So what TYK2 Degradation (0.5 μM) did CNC(=O)c1nnc(NC(=O)C2CC2)cc1Nc1cccc(-c2ncn(CCNC(=O)CCCCC(=O)N[C@H](C(=O)N3C[C@H](O)C[C@H]3C(=O)NCc3ccc(-c4scnc4C)cc3)C(C)(C)C)n2)c1OC [CPD-077] get with TYK2 (Homo sapiens, UniProt P29597)?
≤20%

So what TYK2 Degradation (0.5 μM) did CNC(=O)c1nnc(NC(=O)C2CC2)cc1Nc1cccc(-c2ncn(CCNC(=O)CCCCNc3ccc4c(c3)C(=O)N(C3CCC(=O)NC3=O)C4=O)n2)c1OC (stereo not drawn) [CPD-016] get with TYK2 (Homo sapiens, UniProt P29597)?
≤20%

So what TYK2 Degradation (0.5 μM) did CNC(=O)c1nnc(NC(=O)CNC(=O)CCCCCNc2cccc3c2C(=O)N(C2CCC(=O)NC2=O)C3=O)cc1Nc1cccc(-c2ncn(C)n2)c1OC (stereo not drawn) [CPD-046] get with TYK2 (Homo sapiens, UniProt P29597)?
≤20%

So what TYK2 Degradation (0.5 μM) did CNC(=O)c1nnc(NC(=O)C2CC2)cc1Nc1cccc(-c2ncn(CCNC(=O)CCOCCC(=O)N[C@H](C(=O)N3C[C@H](O)C[C@H]3C(=O)NCc3ccc(-c4scnc4C)cc3)C(C)(C)C)n2)c1OC [CPD-067] get with TYK2 (Homo sapiens, UniProt P29597)?
≤20%

So what TYK2 Degradation (0.5 μM) did CNC(=O)c1nnc(NC(=O)C2CC2)cc1Nc1cccc(-c2ncn(CCNC(=O)CCOCCOCCOCCOCCNc3cccc4c3C(=O)N(C3CCC(=O)NC3=O)C4=O)n2)c1OC (stereo not drawn) [CPD-011] get with TYK2 (Homo sapiens, UniProt P29597)?
≤20%

So what TYK2 Degradation (0.5 μM) did CNC(=O)c1nnc(NC(=O)CNC(=O)CCOCCOCCOCCNc2ccc3c(c2)C(=O)N(C2CCC(=O)NC2=O)C3=O)cc1Nc1cccc(-c2ncn(C)n2)c1OC (stereo not drawn) [CPD-063] get with TYK2 (Homo sapiens, UniProt P29597)?
≤20%
